Reference source for all entries: BindingDB's records for doi:10.1016/0960-894X(95)00162-M

Molecular target: Beta-lactamase TEM (Escherichia coli)
Assay: Kd for TEM-1 beta-lactamase
pKd: −log10 of the molar value.

entry-smiles: C/C=C1\O[C@@H]2CC(=O)N2[C@H]1C(=O)O
pKd: 6.10
